# Assay system: T1, human GPC3-His protein (human, UniProt P51654 25-559)
# T1 construct: Bought protein; also called human GPC3 protein; not shown: His tag
# Protocol text: ELISA, coated human GPC3, antibody 0.1 nM;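 further: antigen coated on 96-well plates at 1 µg/mL, antibody bound 2 h at 37 °C, detected with HRP-labeled secondary antibody and TMB substrate, acid-stopped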
Quick list: OD450 nm per entry.
Enter your answer as a number in OD450; do not include the unit.

binder="F1.111.11 human-murine chimeric antibody (antibody, human IgG1, kappa, V domains shown) VH: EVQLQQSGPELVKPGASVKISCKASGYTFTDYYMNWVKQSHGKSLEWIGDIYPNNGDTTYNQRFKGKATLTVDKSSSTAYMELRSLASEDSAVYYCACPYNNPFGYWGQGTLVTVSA VL: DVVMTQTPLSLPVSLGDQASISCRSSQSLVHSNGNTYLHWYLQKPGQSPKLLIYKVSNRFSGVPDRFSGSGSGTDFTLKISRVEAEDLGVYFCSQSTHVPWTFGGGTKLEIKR" result=1.61

Please find the next binder below.
Qu. Any idea what its OD450 nm is? The binder is F3.54.12 human-murine chimeric antibody (antibody, human IgG1, kappa, V domains shown) VH: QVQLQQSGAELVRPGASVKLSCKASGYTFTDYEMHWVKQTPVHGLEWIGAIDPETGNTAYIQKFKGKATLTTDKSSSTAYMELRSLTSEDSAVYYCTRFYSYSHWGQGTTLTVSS VL: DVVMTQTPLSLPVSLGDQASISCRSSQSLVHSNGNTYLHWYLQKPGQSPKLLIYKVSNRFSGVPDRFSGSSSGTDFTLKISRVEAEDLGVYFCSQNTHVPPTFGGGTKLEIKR
Ans. 1.58
